system_tested: Nuclear receptor ROR-gamma (Homo sapiens)
test_summary: qHTS assay for small molecule antagonists of the retinoid-related orphan receptor gamma (ROR-gamma) signaling pathway (AID 651802);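 note: CHO cells with doxycycline-induced ROR-gamma expression; luciferase reporter luminescence driven by ROR response element; nearly all actives have a fitted effect of over 60% in size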
condition_set: ROR-gamma antagonist cell reporter assay; series mostly up to 92.2 µM
Results filed as inconclusive are left out. The source made the active and inactive calls. Calls come from the whole dose curve; as a rule, active = well fitted inhibition curve with a large enough effect; inconclusive = small, poorly fitted or top-dose-only effect; inactive = no such curve, though single readings can be large or run the other way.
API: response.call in y = active, n = inactive

Would you please look over these solved cases?
ClP(Cl)(Cl)(Cl)Cl	n
ClC(Cl)c1ccccc1	n
Brc1ccc(Oc2ccc(Br)cc2Br)c(Br)c1	n
ClC(Cl)(Cl)C(Cl)(Cl)Cl	n
Cc1cc(-c2cc(C)c(N)c(C)c2)cc(C)c1N	n
N#CCCC#N	n

Prompt: Answer briefly: the call reported for O=[N+]([O-])c1ccc2c3c(cccc13)CC2 in this assay.
Response: n

Prompt: Answer briefly: the call reported for Clc1ccc(C(Cl)(Cl)Cl)c(Cl)c1 in this assay.
Response: n

Prompt: Answer briefly: the call reported for Clc1ccc(C(Cl)(Cl)Cl)cc1Cl in this assay.
Response: n

Prompt: Answer briefly: the call reported for Nc1ccc2ccccc2c1 in this assay.
Response: n

Prompt: Answer briefly: the call reported for ClCCCCl in this assay.
Response: n
